Would you mind telling me the reported hERG current change (%, negative = inhibition) at 10uM of each entry?
target: human ether-à-go-go-related gene (hERG) potassium channel (human, UniProt Q12809); assay: primary screen, population patch clamp on CHO cells stably expressing hERG; higher = less effect of the substance;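 note: peak tail current of the secondary pulse compared with the same well before compound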
Sequence (Q12809 whole entry, looked up): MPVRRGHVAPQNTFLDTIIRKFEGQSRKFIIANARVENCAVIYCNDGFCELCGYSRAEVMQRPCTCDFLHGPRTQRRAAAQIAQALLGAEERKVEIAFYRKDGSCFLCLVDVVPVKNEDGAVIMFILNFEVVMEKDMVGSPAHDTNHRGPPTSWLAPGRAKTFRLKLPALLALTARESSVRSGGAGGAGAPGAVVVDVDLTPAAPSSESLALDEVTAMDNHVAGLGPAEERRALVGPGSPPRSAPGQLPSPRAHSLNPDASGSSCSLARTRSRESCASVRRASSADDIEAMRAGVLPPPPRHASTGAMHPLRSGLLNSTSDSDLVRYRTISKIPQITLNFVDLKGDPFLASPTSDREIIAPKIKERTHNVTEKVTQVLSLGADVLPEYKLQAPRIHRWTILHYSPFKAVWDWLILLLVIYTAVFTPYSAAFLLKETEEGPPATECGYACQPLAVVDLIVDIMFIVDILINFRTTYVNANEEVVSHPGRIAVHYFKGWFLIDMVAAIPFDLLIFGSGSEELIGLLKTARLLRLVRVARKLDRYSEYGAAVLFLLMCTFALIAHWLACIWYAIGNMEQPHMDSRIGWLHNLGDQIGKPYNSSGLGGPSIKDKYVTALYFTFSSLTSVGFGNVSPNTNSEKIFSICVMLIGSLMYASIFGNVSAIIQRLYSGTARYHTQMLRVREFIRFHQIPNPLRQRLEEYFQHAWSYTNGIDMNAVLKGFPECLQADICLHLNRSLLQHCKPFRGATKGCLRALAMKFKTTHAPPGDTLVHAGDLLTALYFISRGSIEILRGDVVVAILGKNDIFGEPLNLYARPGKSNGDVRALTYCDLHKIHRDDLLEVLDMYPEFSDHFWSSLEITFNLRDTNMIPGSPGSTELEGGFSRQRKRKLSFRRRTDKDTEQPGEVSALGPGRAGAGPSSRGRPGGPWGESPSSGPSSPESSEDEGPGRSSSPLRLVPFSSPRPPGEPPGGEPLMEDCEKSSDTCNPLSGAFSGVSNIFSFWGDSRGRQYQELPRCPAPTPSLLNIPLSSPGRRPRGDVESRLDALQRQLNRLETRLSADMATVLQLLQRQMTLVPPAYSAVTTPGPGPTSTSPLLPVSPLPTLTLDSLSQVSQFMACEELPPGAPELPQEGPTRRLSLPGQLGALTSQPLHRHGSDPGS
In all, about 310,000 compounds went through this assay and about 14,000 (4.5%) showed an effect of 50% or more. The effect is printed as a negative number. Many of the other results were omitted from the sample, so strong results are more common in it than they were.
API: value field is a number in %; no unit string.

For human ether-à-go-go-related gene (hERG) potassium channel (human, UniProt Q12809), give hERG current change (%, negative = inhibition) at 10uM of the listed molecule: `O=C(c1ccccc1F)N1CCN(c2ccccc2F)CC1`
-2.08

Give reported hERG current change (%, negative = inhibition) at 10uM for `O=C(c1ccccc1C(=O)N1CCN(c2ccccc2F)CC1)N1CCN(c2ccccc2F)CC1` (human ether-à-go-go-related gene (hERG) potassium channel (human, UniProt Q12809))
-31

Check human ether-à-go-go-related gene (hERG) potassium channel (human, UniProt Q12809) data and give hERG current change (%, negative = inhibition) at 10uM for `COc1ccccc1N1CCN(C(=O)c2cc3cc(F)ccc3[nH]2)CC1` .
15.8

Given `Cc1cc(C)c(S(=O)(=O)/N=C2/C=C(Sc3ncn[nH]3)C(=O)c3ccccc32)cc1C` , report its hERG current change (%, negative = inhibition) at 10uM on human ether-à-go-go-related gene (hERG) potassium channel (human, UniProt Q12809).
18.2

Under human ether-à-go-go-related gene (hERG) potassium channel (human, UniProt Q12809), report hERG current change (%, negative = inhibition) at 10uM for `COC1=CC(=O)OC12CCCCC2`
8.91

###

biological target: human ether-à-go-go-related gene (hERG) potassium channel (human); assay: primary screen, population patch clamp on CHO cells stably expressing hERG; higher = less effect of the substance;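 note: peak tail current of the secondary pulse compared with the same well before compound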
The campaign covered roughly 310,000 compounds. About 14,000 (4.5%) showed an effect of 50% or more. The effect is printed as a negative number. Shown is part of a subset that was picked to be rich in strong results.
ENDPOINT: hERG current change (%, negative = inhibition) at 10uM (%)
Number only, in %; omit the unit.

Print human ether-à-go-go-related gene (hERG) potassium channel (human) hERG current change (%, negative = inhibition) at 10uM for O=C(CCc1ccc(F)c(F)c1)NC1CCCN(Cc2ccc(Cl)cc2)C1 (centres unmarked) .
-66

State hERG current change (%, negative = inhibition) at 10uM on human ether-à-go-go-related gene (hERG) potassium channel (human). Entry: `CCCCCCCCNC(=O)c1cccnc1SCC(=O)Nc1ccccc1OC`
2.4

Lab note: record hERG current change (%, negative = inhibition) at 10uM of O=C(CCc1cccc(Cl)c1)NC1CCCN(Cc2ccccc2F)C1 (centres unmarked) tested on human ether-à-go-go-related gene (hERG) potassium channel (human).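 Note: peak tail current of the secondary pulse compared with the same well before compound.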
-28.3

// fetch hERG current change (%, negative = inhibition) at 10uM for COc1cccc(CC(=O)NC2CCCN(Cc3ccc(Cl)cc3)C2)c1 (centres unmarked) ; system: human ether-à-go-go-related gene (hERG) potassium channel (human);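 note: peak tail current of the secondary pulse compared with the same well before compound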
-26.3

Give human ether-à-go-go-related gene (hERG) potassium channel (human) hERG current change (%, negative = inhibition) at 10uM for the following molecule: COc1ccc(C(=O)NC2CCCN(Cc3ccc(Cl)cc3)C2)c(OC)c1 (centres unmarked)
-79.5

The origin of these recorded values is paper PMC4336329.
